Target: Bacillus subtilis glutamine PRPP amidotransferase variant K305Q (Bacillus subtilis, UniProt P00497, K316Q)
Construct: Enzymes of the B. subtilis class are synthesized with an NH2 terminal propeptide; made in house; host or cells: E. coli strain TX158 (purF), plasmid pBsF/K305Q
Test: Inhibition of enzyme activity (glutamate formation) by nucleotides, mutant K305Q
Type: biochemical
Settings: I0.5, fixed ADP 0.5 mM
VALUE TYPE: IC50 (mM)
Your answer is read as mM, so omit the unit and give the number.

input: Report IC50 for Nc1nc2c(ncn2[C@@H]2O[C@H](COP(=O)(O)O)[C@@H](O)[C@H]2O)c(=O)[nH]1 [GMP]
output: 6

* * *

Biological target: Bacillus subtilis glutamine PRPP amidotransferase variant R307Q (Bacillus subtilis, UniProt P00497, R318Q)
Construct: Enzymes of the B. subtilis class are synthesized with an NH2 terminal propeptide; made in house; host or cells: E. coli strain TX158 (purF), plasmid pBsF/R307Q
Test: Inhibition of enzyme activity (glutamate formation) by nucleotides, mutant R307Q
Type: biochemical
Conditions: I0.5, fixed GMP 0.50 mM
VALUE TYPE: IC50 (µM)
Reply with just the number (in µM).

input: Quote IC50 reported for Nc1ncnc2c1ncn2[C@@H]1O[C@H](COP(=O)(O)OP(=O)(O)O)[C@@H](O)[C@H]1O please.
output: 2400

* * *

Target: Bacillus subtilis glutamine PRPP amidotransferase variant R307Q (Bacillus subtilis, UniProt P00497, R318Q)
Construct: Enzymes of the B. subtilis class are synthesized with an NH2 terminal propeptide; made in house; host or cells: E. coli strain TX158 (purF), plasmid pBsF/R307Q
Assay: Inhibition of enzyme activity (glutamate formation) by nucleotides, mutant R307Q
Type: biochemical
Conditions: I0.5, fixed GMP 5.0 mM
Method: Plasmid pGZ1 was used for production of the wild type enzyme. […] Enzyme activity was assayed by measuring the initial rate of formation of the product glutamate. […] Reactions were quenched in a boiling water bath for 2 min, and glutamate was determined by the glutamate dehydrogenase method. […] Inhibition by nucleotides was determined by the standard assay to which varied concentrations of nucleotide were added. […]
VALUE TYPE: IC50 (µM)
Respond with the bare value in µM.

input: Specify measured IC50 for Nc1ncnc2c1ncn2[C@@H]1O[C@H](COP(=O)(O)OP(=O)(O)O)[C@@H](O)[C@H]1O [ADP] .
output: 180

* * *

Target: Bacillus subtilis glutamine PRPP amidotransferase, wild type (Bacillus subtilis)
Construct: Enzymes of the B. subtilis class are synthesized with an NH2 terminal propeptide; made in house; host or cells: E. coli strain TX158 (purF), plasmid pGZ1
Test: Inhibition of enzyme activity (glutamate formation) by nucleotides, wild type
Type: biochemical
Settings: fixed GMP 2.0 mM; read-out: I0.5
VALUE TYPE: IC50 (µM)
# unit: µM | format: bare number

input: Supply measured IC50 of Nc1ncnc2c1ncn2[C@@H]1O[C@H](COP(=O)(O)OP(=O)(O)O)[C@@H](O)[C@H]1O in your reply.
output: 40

* * *

Target: Bacillus subtilis glutamine PRPP amidotransferase variant R307Q (Bacillus subtilis, UniProt P00497, R318Q)
Construct: Enzymes of the B. subtilis class are synthesized with an NH2 terminal propeptide; made in house; host or cells: E. coli strain TX158 (purF), plasmid pBsF/R307Q
Experiment: Inhibition of enzyme activity (glutamate formation) by nucleotides, mutant R307Q
Type: biochemical
Conditions: I0.5, fixed ADP 2.5 mM
VALUE TYPE: IC50 (µM)
All answers are understood in µM, so give the number only.

input: Determine from records and report IC50 for Nc1nc2c(ncn2[C@@H]2O[C@H](COP(=O)(O)O)[C@@H](O)[C@H]2O)c(=O)[nH]1 [GMP]
output: 760
